Target: short form of the GPR120 receptor (GPR120S) (Homo sapiens)
Sequence (Q5NUL3 whole entry): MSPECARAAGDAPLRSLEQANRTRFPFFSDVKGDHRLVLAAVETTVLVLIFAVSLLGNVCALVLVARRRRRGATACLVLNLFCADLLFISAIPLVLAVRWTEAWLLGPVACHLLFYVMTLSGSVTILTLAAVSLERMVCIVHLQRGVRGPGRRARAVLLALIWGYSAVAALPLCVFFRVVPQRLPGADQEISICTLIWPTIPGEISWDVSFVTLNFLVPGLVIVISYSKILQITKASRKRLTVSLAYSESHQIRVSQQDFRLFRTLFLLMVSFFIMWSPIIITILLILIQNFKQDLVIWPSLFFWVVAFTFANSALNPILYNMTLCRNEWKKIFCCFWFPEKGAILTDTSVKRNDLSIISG
Sequence (P32121 whole entry partner): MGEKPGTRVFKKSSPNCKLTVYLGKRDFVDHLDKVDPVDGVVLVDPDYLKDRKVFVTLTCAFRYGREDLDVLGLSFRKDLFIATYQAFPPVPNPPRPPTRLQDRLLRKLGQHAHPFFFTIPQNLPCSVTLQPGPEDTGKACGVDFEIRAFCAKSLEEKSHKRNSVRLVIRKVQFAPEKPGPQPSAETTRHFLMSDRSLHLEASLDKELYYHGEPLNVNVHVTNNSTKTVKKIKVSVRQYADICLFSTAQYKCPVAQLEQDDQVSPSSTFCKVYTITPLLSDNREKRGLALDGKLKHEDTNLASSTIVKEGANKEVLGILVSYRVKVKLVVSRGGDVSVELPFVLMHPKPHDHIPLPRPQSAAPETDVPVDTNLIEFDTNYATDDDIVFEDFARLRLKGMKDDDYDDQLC
Test: Human GPR120 DiscoveRx PathHunter Beta-Arrestin assay, Procedure β-arrestin B
Details: PathHunter CHO-K1 GPR120S β-Arrestin cell line, 5000 cells/well, read-out: hGPR120 β-arrestin B EC50
Entries get a class label from measured EC50. See ranges: interval 1 = under 0.09 µM, interval 2 = from 0.09 µM up to 0.2 µM, interval 3 = 0.2 µM and over

# Compound, Label value
records = [
    ("OCC#Cc1cc(F)c(OCc2c(-c3ccc(Cl)cc3)nsc2C(F)(F)F)c(F)c1", "interval 1"),
    ("CC(Cc1ccc(OCc2c(-c3ccc(Cl)c(F)c3)nsc2C(F)(F)F)cc1)C(=O)O (stereo not drawn)", "interval 3"),
    ("O=C(O)CCc1cc(F)c(OCc2c(C(F)(F)F)nsc2-c2ccc(Cl)c(F)c2)c(F)c1", "interval 2"),
    ("O=C(O)CCc1cc(F)c(OCc2c(C3CCC(F)(F)C3)nsc2C(F)(F)F)c(F)c1 (stereo not drawn)", "interval 3"),
    ("Cc1ccc(-c2snc(C(F)(F)F)c2COc2ccc(CCC(=O)O)c(C)c2C)c(C)c1", "interval 3"),
    ("CC(Cc1cc(F)c(OCc2c(-c3ccc(Cl)cc3)nsc2C(F)(F)F)c(F)c1)C(=O)O (stereo not drawn)", "interval 2"),
    ("O=C(O)CCc1cc(F)c(OCc2c(-c3ncc(Cl)cc3F)nsc2C(F)(F)F)c(F)c1", "interval 2"),
    ("Cc1ccc(-c2nsc(C(F)(F)F)c2COc2ccc(CCC(=O)O)c(C)c2C)cc1F", "interval 1"),
    ("OCCCc1cc(F)c(OCc2c(-c3ccc4c(c3)OCO4)nsc2C(F)(F)F)c(F)c1", "interval 1"),
    ("Cc1c(CCC(=O)O)ccc(OCc2sc(F)cc2-c2ccc(Cl)cc2)c1C", "interval 1"),
    ("COc1cc(F)c(-c2nsc(C(F)(F)F)c2COc2c(F)cc(CCC(=O)O)cc2F)c(F)c1", "interval 3"),
    ("Cc1c(CCC(=O)O)ccc(OCc2c(-c3ccc(Cl)cc3)nsc2C(F)(F)F)c1C", "interval 2"),
    ("Cc1c(CCC(=O)O)ccc(OCc2c(-c3ccccc3)nsc2C(F)(F)F)c1C", "interval 3"),
    ("O=C(O)CCc1cc(F)c(OCc2c(-c3ccc(Cl)cc3)nsc2C(F)(F)F)c(F)c1", "interval 1"),
    ("Cc1ccc(-c2nsc(C(F)(F)F)c2COc2c(F)cc(CCC(=O)O)cc2F)c(F)c1", "interval 2"),
]

###

Catalogue of compounds with associated EC50
Biological target: long form of human GPR120 (Homo sapiens)
Sequence (Q5NUL3 1-377 isoform Q5NUL3-1): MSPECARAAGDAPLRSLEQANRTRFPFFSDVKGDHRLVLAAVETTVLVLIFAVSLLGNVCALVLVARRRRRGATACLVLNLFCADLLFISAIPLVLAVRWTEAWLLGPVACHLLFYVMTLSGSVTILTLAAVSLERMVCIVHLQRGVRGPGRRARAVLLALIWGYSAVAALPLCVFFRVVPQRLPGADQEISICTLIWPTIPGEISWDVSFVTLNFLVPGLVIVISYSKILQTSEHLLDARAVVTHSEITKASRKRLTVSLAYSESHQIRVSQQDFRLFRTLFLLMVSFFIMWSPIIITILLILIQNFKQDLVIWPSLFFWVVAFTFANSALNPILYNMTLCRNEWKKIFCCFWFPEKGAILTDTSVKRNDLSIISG
Sequence (P32121 whole entry partner): as the sequence (P32121 whole entry partner) above
Assay: Human GPR120 DiscoveRx PathHunter Beta-Arrestin assay, Procedure β-arrestin A
Settings: PathHunter CHO-K1 GPR120 β-Arrestin cell line, 3000 cells per well, read-out: hGPR120 β-arrestin A EC50
Measurement label: EC50

# Compound, Assay value
data = [
    ("CC(Cc1cc(F)c(OCc2c(-c3ccc(Cl)cc3)nsc2C(F)(F)F)c(F)c1)C(=O)O (centres unmarked)", "261 nM"),
    ("OCCCc1cc(F)c(OCc2c(-c3ccc(Cl)cc3)csc2C(F)(F)F)c(F)c1", "125 nM"),
    ("Cc1ccc(-c2snc(Cl)c2COc2c(F)cc(CCC(=O)O)cc2F)c(F)c1 [Cpd 77]", "191 nM"),
    ("CCc1ccc(-c2nsc(C(F)(F)F)c2COc2ccc(CCCO)c(F)c2F)cc1", "77 nM"),
    ("CCc1ccc(-c2nsc(C(F)(F)F)c2COc2ccc(CCC(=O)O)c(C)c2C)cc1", "178 nM"),
]
